Values compiled from ChEMBL document CHEMBL4387722.

# ASSAYED_TARGET: Tyrosine-protein phosphatase non-receptor type 5 (Homo sapiens, UniProt P54829)
# Sequence (P54829 whole entry): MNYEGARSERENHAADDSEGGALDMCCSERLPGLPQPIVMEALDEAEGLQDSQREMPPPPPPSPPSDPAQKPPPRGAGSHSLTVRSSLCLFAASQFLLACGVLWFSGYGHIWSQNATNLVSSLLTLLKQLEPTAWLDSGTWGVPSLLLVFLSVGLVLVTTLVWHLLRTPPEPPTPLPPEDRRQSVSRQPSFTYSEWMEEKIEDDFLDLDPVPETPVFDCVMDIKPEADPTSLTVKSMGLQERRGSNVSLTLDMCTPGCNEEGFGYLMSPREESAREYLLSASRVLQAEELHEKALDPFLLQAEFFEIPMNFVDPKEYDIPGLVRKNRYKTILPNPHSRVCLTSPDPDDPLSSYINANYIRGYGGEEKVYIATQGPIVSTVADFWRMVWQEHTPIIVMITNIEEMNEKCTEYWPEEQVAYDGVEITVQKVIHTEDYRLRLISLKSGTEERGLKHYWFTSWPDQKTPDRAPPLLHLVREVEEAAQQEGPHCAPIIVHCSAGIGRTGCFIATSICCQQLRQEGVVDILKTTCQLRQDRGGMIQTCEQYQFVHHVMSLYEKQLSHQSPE
RECORDED_METRIC: pIC50
Scale: pIC50 equals -log10([C]), with [C] in mol/L.

O=S(=O)(Nc1ccc(-c2nc3ccccc3o2)cc1)c1cccc(O)c1 | 4.08
CCc1ccc(S(=O)(=O)Nc2ccc(-c3nc4ccccc4o3)cc2)cc1 | 4.51
O=S(=O)(Nc1ccc(-c2nc3cc(NS(=O)(=O)c4ccc(C(F)(F)F)cc4)ccc3o2)cc1)c1ccc(C(F)(F)F)cc1 | 5.10
O=S(=O)(Nc1ccc2oc(-c3ccc(NS(=O)(=O)c4ccc(Cl)s4)cc3)nc2c1)c1ccccc1 | 4.62

Q) Consider the compound shown here: O=S(=O)(Nc1ccc(-c2nc3cc(NS(=O)(=O)c4ccc(Cl)s4)ccc3o2)cc1)c1ccc(Cl)c(Cl)c1 What is its recorded pIC50?
A) 5.01

Q) Consider the compound shown here: O=S(=O)(Nc1ccc(-c2nc3cc(NS(=O)(=O)c4ccccc4O)ccc3o2)cc1)c1ccccc1O What is its recorded pIC50?
A) 4.60

Q) Consider the compound shown here: O=[N+]([O-])c1cccc(S(=O)(=O)Nc2ccc(-c3nc4cc(NS(=O)(=O)c5cccc([N+](=O)[O-])c5)ccc4o3)cc2)c1 What is its recorded pIC50?
A) 4.62

Q) Consider the compound shown here: O=S(=O)(Nc1ccc2oc(-c3ccc(NS(=O)(=O)c4ccc(Cl)s4)cc3)nc2c1)c1ccc(Cl)c(Cl)c1 What is its recorded pIC50?
A) 4.96

Q) Consider the compound shown here: Cc1ccc(S(=O)(=O)Nc2ccc(-c3nc4cc(NS(=O)(=O)c5ccc(C)cc5)ccc4o3)cc2)cc1 What is its recorded pIC50?
A) 4.85

Q) Consider the compound shown here: O=S(=O)(Nc1ccc2oc(-c3ccccc3)nc2c1)c1ccc(O)cc1 What is its recorded pIC50?
A) 4.08

Q) Consider the compound shown here: O=S(=O)(Nc1ccc(-c2nc3cc(NS(=O)(=O)c4ccc(Cl)s4)ccc3o2)cc1)c1cccs1 What is its recorded pIC50?
A) 5.03

Q) Consider the compound shown here: COc1ccc(Cl)cc1S(=O)(=O)Nc1ccc2oc(-c3ccccc3)nc2c1 What is its recorded pIC50?
A) 4.43

Q) Consider the compound shown here: O=S(=O)(Nc1ccc(-c2nc3cc(NS(=O)(=O)c4ccc(Cl)s4)ccc3o2)cc1)c1ccc(F)c(C(F)(F)F)c1 What is its recorded pIC50?
A) 4.85

Q) Consider the compound shown here: O=S(=O)(Nc1ccc(-c2nc3cc(NS(=O)(=O)c4cccc5nonc45)ccc3o2)cc1)c1ccc(Cl)s1 What is its recorded pIC50?
A) 4.72

Q) Consider the compound shown here: COC(=O)c1ccccc1S(=O)(=O)Nc1ccc(-c2nc3cc(NS(=O)(=O)c4ccccc4C(=O)OC)ccc3o2)cc1 What is its recorded pIC50?
A) 4.68

Q) Consider the compound shown here: O=S(=O)(Nc1ccc(-c2nc3ccccc3o2)cc1)c1ccccc1 What is its recorded pIC50?
A) 4.29
